target-desc: Human β-catenin (Homo sapiens, UniProt P35222)
Construct: Variant: β-catenin (human) (Hs134–670)+TCF4(Hs1–53); purchased Proteros Biostructures
Sequence (P35222 134-670): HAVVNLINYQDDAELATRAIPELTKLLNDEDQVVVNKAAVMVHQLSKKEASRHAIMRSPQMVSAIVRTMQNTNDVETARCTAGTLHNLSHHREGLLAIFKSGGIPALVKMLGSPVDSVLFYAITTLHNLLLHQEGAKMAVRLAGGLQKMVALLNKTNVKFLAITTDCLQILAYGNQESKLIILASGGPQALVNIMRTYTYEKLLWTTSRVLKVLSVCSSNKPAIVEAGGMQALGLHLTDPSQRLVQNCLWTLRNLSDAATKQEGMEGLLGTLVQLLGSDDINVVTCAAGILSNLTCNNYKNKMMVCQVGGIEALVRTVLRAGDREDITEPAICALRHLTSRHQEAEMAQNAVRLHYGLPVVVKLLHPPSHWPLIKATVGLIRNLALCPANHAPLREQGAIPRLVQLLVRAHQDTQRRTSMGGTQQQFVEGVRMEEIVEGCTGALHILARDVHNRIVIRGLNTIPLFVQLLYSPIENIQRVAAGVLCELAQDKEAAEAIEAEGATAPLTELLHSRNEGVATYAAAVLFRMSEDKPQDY
test-method-notes: Focal molography (FM) competition: free TCF4(7–51) with 250 nM β-catenin over TCF4(7–30) sensor, buffer
Format: binding
condition-context: range over 3 sensors x 3 runs
Where no end group is shown, it is not given here.
experimental-readout: IC50

// query Which value of IC50 has been reported for GGGDDLGANDELISFKDEGEQEEKSSENSSAERDLADVKSSLVNE [TCF4(7–51)] in the records?
// result 110 to 200 nM

* * *

target-desc: Human β-catenin (Homo sapiens, UniProt P35222)
Construct: Variant: β-catenin (human) (Hs134–670)+TCF4(Hs1–53); purchased Proteros Biostructures
test-method-notes: Focal molography (FM) competition: free TCF4(7–51) with 250 nM β-catenin over TCF4(7–30) sensor, RKO cell lysate
Type: binding
condition-context: cell lysate 1 Mio cells/mL, Sensor 2, average of three runs, SD, read-out: IC50, Average ± SD
Where no end group is shown, it is not given here.
experimental-readout: pIC50
Notebook: values listed as pIC50 are -log10 of the concentration (mol/L).

// query For Human β-catenin (Homo sapiens, UniProt P35222), provide pIC50 of GGGDDLGANDELISFKDEGEQEEKSSENSSAERDLADVKSSLVNE [TCF4(7–51)] please.
// result 6.80
